Before we begin, note that these IC50 values for Mast/stem cell growth factor receptor Kit (Homo sapiens) originate from several publications.

QUERY: What value of IC50 on Mast/stem cell growth factor receptor Kit (Homo sapiens) does `Clc1cccc(Cl)c1Cc1c[nH]c2ncccc12` have?
RESULT: ≤ 10 µM

QUERY: What value of IC50 on Mast/stem cell growth factor receptor Kit (Homo sapiens) does `Cc1cnc2[nH]cc(Cc3cnc(Nc4ccc(S(C)(=O)=O)cc4)nc3)c2c1` have?
RESULT: < 0.1 µM

QUERY: What value of IC50 on Mast/stem cell growth factor receptor Kit (Homo sapiens) does `O=C(NCc1cccs1)c1cc2n(c1)CCc1c(NC(=O)c3ccc4c(c3)OCO4)n[nH]c1-2` have?
RESULT: 2.66 µM

QUERY: What value of IC50 on Mast/stem cell growth factor receptor Kit (Homo sapiens) does `COc1ncc(F)cc1CNc1ccc(Cc2c[nH]c3ncncc23)c(F)n1` have?
RESULT: ≤ 10 µM

QUERY: What value of IC50 on Mast/stem cell growth factor receptor Kit (Homo sapiens) does `COc1ncc(F)cc1CNc1ncc(Cc2c[nH]c3ncncc23)cn1` have?
RESULT: ≤ 10 µM

QUERY: What value of IC50 on Mast/stem cell growth factor receptor Kit (Homo sapiens) does OC(c1c(Cl)ccc(OCC(F)(F)F)c1F)c1c[nH]c2ncc(Br)cc12 (stereo not drawn) have?
RESULT: ≤ 10 µM

QUERY: What value of IC50 on Mast/stem cell growth factor receptor Kit (Homo sapiens) does `CNc1ncnc2[nH]cc(C(=O)c3ccc(NC4CCC(F)(F)CC4)nc3)c12` have?
RESULT: < 1 µM

QUERY: What value of IC50 on Mast/stem cell growth factor receptor Kit (Homo sapiens) does `CCCCNC(=O)Nc1ccc(F)c(C(=O)c2c[nH]c3ncc(OC)cc23)c1F` have?
RESULT: ≤ 10 µM

QUERY: What value of IC50 on Mast/stem cell growth factor receptor Kit (Homo sapiens) does `CCCS(=O)(=O)Nc1ccc(F)c(C(=O)c2c[nH]c3ncc(-c4ccc(C(N)=O)nc4)cc23)c1F` have?
RESULT: ≤ 10 µM

QUERY: What value of IC50 on Mast/stem cell growth factor receptor Kit (Homo sapiens) does `Nc1ncc(-c2ccc(CNC(=O)Nc3ccc(Cl)c(C(F)(F)F)c3)cc2)nc1C(=O)N1CCNCC1` have?
RESULT: 0.5 to 5 µM

QUERY: What value of IC50 on Mast/stem cell growth factor receptor Kit (Homo sapiens) does `CCCS(=O)(=O)Nc1ccc(F)c(C(=O)c2c[nH]c3ncc(-c4cn[nH]c4)cc23)c1F` have?
RESULT: ≤ 10 µM

QUERY: What value of IC50 on Mast/stem cell growth factor receptor Kit (Homo sapiens) does `COc1cccc(C(=O)c2c[nH]c3ncc(-c4cccc(NC(C)=O)c4)cc23)c1F` have?
RESULT: ≤ 10 µM

QUERY: What value of IC50 on Mast/stem cell growth factor receptor Kit (Homo sapiens) does `COc1cc(OC)cc(C(=O)c2c[nH]c3ncc(-c4cccnc4)cc23)c1` have?
RESULT: ≤ 10 µM

QUERY: What value of IC50 on Mast/stem cell growth factor receptor Kit (Homo sapiens) does `COc1cccc(Cc2c[nH]c3nccc(Br)c23)c1` have?
RESULT: ≤ 10 µM

QUERY: What value of IC50 on Mast/stem cell growth factor receptor Kit (Homo sapiens) does `CNc1ncc2c(n1)N1CCN=C1C(c1cc(NS(=O)(=O)c3ccccc3F)ccc1C)=C2` have?
RESULT: > 10 µM

QUERY: What value of IC50 on Mast/stem cell growth factor receptor Kit (Homo sapiens) does `O=C(c1ccccc1O)c1c[nH]c2ncc(-c3cccs3)cc12` have?
RESULT: ≤ 10 µM

QUERY: What value of IC50 on Mast/stem cell growth factor receptor Kit (Homo sapiens) does `CCc1ccc(Nc2ccc(C(=O)c3c[nH]c4ncnc(NC(C)C)c34)c(F)n2)cn1` have?
RESULT: < 0.1 µM

QUERY: What value of IC50 on Mast/stem cell growth factor receptor Kit (Homo sapiens) does `CNc1ncc2c(n1)N1CCN=C1C(Oc1ccc(NC(=O)Nc3ccc(Cl)c(C(F)(F)F)c3)cc1)=C2` have?
RESULT: 0.1 to 10 µM

QUERY: What value of IC50 on Mast/stem cell growth factor receptor Kit (Homo sapiens) does `N#Cc1cnc2[nH]cc(C(=O)c3cccc(NS(=O)(=O)c4ccccc4F)c3F)c2c1` have?
RESULT: ≤ 10 µM

QUERY: What value of IC50 on Mast/stem cell growth factor receptor Kit (Homo sapiens) does `COc1cnc2[nH]cc(C(=O)c3c(F)ccc(NS(=O)(=O)C(F)(F)F)c3F)c2c1` have?
RESULT: ≤ 10 µM

QUERY: What value of IC50 on Mast/stem cell growth factor receptor Kit (Homo sapiens) does `Oc1ccc(F)c(Cc2c[nH]c3ncc(Br)cc23)c1F` have?
RESULT: ≤ 10 µM

QUERY: What value of IC50 on Mast/stem cell growth factor receptor Kit (Homo sapiens) does `COCCOCCOCCOCCOCCOCCOCCOCCOCCN1CCN(Cc2ccc(C(=O)Nc3ccc(C)c(Nc4nccc(-c5cccnc5)n4)c3)cc2)CC1` have?
RESULT: 0.55 µM

QUERY: What value of IC50 on Mast/stem cell growth factor receptor Kit (Homo sapiens) does `O=C(c1c(F)ccc(NS(=O)(=O)c2cc(F)ccc2F)c1F)c1c[nH]c2nccc(Cl)c12` have?
RESULT: ≤ 10 µM

QUERY: What value of IC50 on Mast/stem cell growth factor receptor Kit (Homo sapiens) does `COc1ccnc2[nH]cc(C(=O)c3c(F)ccc(NS(C)(=O)=O)c3F)c12` have?
RESULT: ≤ 10 µM

QUERY: What value of IC50 on Mast/stem cell growth factor receptor Kit (Homo sapiens) does `COc1ccc(F)c(C(=O)c2c[nH]c3ncc(Br)cc23)c1` have?
RESULT: ≤ 10 µM

QUERY: What value of IC50 on Mast/stem cell growth factor receptor Kit (Homo sapiens) does CCC(C)S(=O)(=O)Nc1ccc(F)c(C(=O)c2c[nH]c3ncc(C#N)cc23)c1F (stereo not drawn) have?
RESULT: ≤ 10 µM

QUERY: What value of IC50 on Mast/stem cell growth factor receptor Kit (Homo sapiens) does `COc1ccc(OC)c(CNc2ccc(Cc3c[nH]c4ncncc34)c(F)n2)c1` have?
RESULT: ≤ 10 µM

QUERY: What value of IC50 on Mast/stem cell growth factor receptor Kit (Homo sapiens) does `O=C(c1ccc(Nc2ccc(C(F)(F)F)nc2)nc1F)c1c[nH]c2ncnc(NC3CC3)c12` have?
RESULT: < 0.1 µM

QUERY: What value of IC50 on Mast/stem cell growth factor receptor Kit (Homo sapiens) does `CCN1CCC(Nc2ccc3c(c2)/C(=C(/c2nc(C)c[nH]2)c2ccc(Cl)cc2F)C(=O)N3)CC1` have?
RESULT: < 0.05 µM

QUERY: What value of IC50 on Mast/stem cell growth factor receptor Kit (Homo sapiens) does `COc1cnc2[nH]cc(C(=O)c3c(F)ccc(NS(=O)(=O)c4ccc(F)cc4)c3F)c2c1` have?
RESULT: ≤ 10 µM

QUERY: What value of IC50 on Mast/stem cell growth factor receptor Kit (Homo sapiens) does `CC(C)c1cc(NC(=O)Nc2ccc(Oc3ccnc(-c4cnn(C)c4)c3)cc2F)n(-c2cccc(C#N)c2)n1` have?
RESULT: < 0.1 µM

QUERY: What value of IC50 on Mast/stem cell growth factor receptor Kit (Homo sapiens) does `O=C(c1cc(NS(=O)(=O)c2ccc(OC(F)(F)F)cc2)ccc1F)c1c[nH]c2ncc(Cl)cc12` have?
RESULT: ≤ 10 µM

QUERY: What value of IC50 on Mast/stem cell growth factor receptor Kit (Homo sapiens) does `Fc1nc(NCc2ccc(C(F)(F)F)nc2)ccc1Cc1c[nH]c2ncncc12` have?
RESULT: ≤ 10 µM
